FYI, the data here is from patent US20020086895A1.

System: Candida albicans (strain ATCC #90028)
Assay: Inhibition of Candida spp. culture (XTT)
Type: cell-based
Details: assay validation
quantity.measured: C. albicans minimum inhibitory concentration (MIC) compared with reported ranges

# compound, experimental.value
data = [
    ("NC(=O)OC[C@H](O)[C@@H](O)[C@H](N)C(=O)N[C@H](C(=O)O)[C@H]1O[C@@H](n2cc(C(=O)O)c(=O)[nH]c2=O)[C@H](O)[C@@H]1O [polyoxin D]", "within reported ranges"),
    ("Nc1nc(=O)[nH]cc1F [5-flucytosine]", "within reported ranges"),
    ("OC(Cn1cncn1)(Cn1cncn1)c1ccc(F)cc1F [fluconazole, reference compound]", "within reported ranges"),
]

----------
System: Candida albicans (strain ATCC #90028)
Assay: Inhibition of Candida spp. culture (XTT)
Format: cell-based
Conditions: assay validation
quantity.measured: C. albicans minimum inhibitory concentration (MIC) compared with reported ranges

# compound, target.under.test, experimental.value
rows = [
    ("C[C@@H]1[C@H](O)[C@@H](C)/C=C/C=C/C=C/C=C/C=C/C=C/C=C/[C@H](O[C@@H]2O[C@H](C)[C@@H](O)[C@H](N)[C@@H]2O)C[C@@H]2O[C@](O)(C[C@@H](O)C[C@@H](O)[C@H](O)CC[C@@H](O)C[C@@H](O)CC(=O)O[C@H]1C)C[C@H](O)[C@H]2C(=O)O [Amphotericin B]", "Candida albicans (strain ATCC #90028)", "within reported ranges"),
    ("C[C@@H]([C@H](N)C(=O)N[C@H](C(=O)O)[C@H]1O[C@@H](n2ccc(=O)[nH]c2=O)[C@H](O)[C@@H]1O)[C@H](O)c1ccc(O)cn1 [Nikkomycin Z, reference compound]", "Candida albicans (strain ATCC #90028)", "within reported ranges"),
]

----------
Test system: A. fumigatus
Test: Antifungal screen of matrix-synthesis aurones in 96-well plates, A. fumigatus
Format: cell-based, Aspergillus fumigatus
Details: @8 μg/ml
Label t for high-side AF percent inhibition (at or above 50%) and f for low-side AF percent inhibition (below it).

Exercise: Check the entry `Cc1ccccc1C=C1Oc2cc3c(c(O)c2C1=O)CCC(C)(C)O3` : does AF percent inhibition equal or exceed 50%?
Key: f

Exercise: API: above_or_equal(metric=AF percent inhibition, cutoff=50%) for item `C=CCOc1ccccc1C=C1Oc2cc3c(c(O)c2C1=O)CCC(C)(C)O3`
Key: t

Exercise: Can `CC1(C)CCc2c(cc3c(c2O)C(=O)C(=Cc2cccc(O)c2O)O3)O1` be said to have AF percent inhibition at or above 50%?
Key: t

Exercise: Is AF percent inhibition at least 50%? Consider `C=CCc1c(O)cc2c(c1O)C(=O)C(=Cc1cc(C(C)(C)C)c(O)c(C(C)(C)C)c1)O2`
Key: t

Exercise: Answer whether AF percent inhibition of `C=CCc1c(O)cc2c(c1O)C(=O)C(=Cc1ccccc1OCC)O2` is greater than or equal to 50%.
Key: t

Exercise: Could you verify whether the entry `C=CCc1c(O)cc2c(c1O)C(=O)C(=Cc1cccc(O)c1O)O2` shows AF percent inhibition of no less than 50%?
Key: f

Exercise: Would you say `C=CCc1c(O)cc2c(c1O)C(=O)C(=Cc1ccc(F)cc1F)O2` shows AF percent inhibition at minimum 50%?
Key: t

Exercise: Confirm if AF percent inhibition reported for the compound `C=CCc1c(O)cc2c(c1O)C(=O)C(=Cc1ccc(CC)cc1)O2` is 50% or above.
Key: f

Exercise: Form field: AF percent inhibition at least 50%? Entry: `CCOc1ccccc1C=C1Oc2cc3c(c(O)c2C1=O)CCC(C)(C)O3`
Key: t

Exercise: Please tell me: is the compound `Cc1cccc(C)c1C=C1Oc2cc3c(c(O)c2C1=O)CCC(C)(C)O3` at or over 50% in terms of AF percent inhibition?
Key: t

----------
Tested on: A. fumigatus
Experiment: Antifungal screen of matrix-synthesis aurones in 96-well plates, A. fumigatus
Assay type: cell-based, Aspergillus fumigatus
Conditions: @8 μg/ml
quantity.measured: AF percent inhibition (%)
Your answer is read as %, so omit the unit and give the number.

Exercise: Any idea what its AF percent inhibition is? The molecule is `Cc1ccc(C=C2Oc3cc4c(c(O)c3C2=O)CCC(C)(C)O4)cc1`
Key: 93

Exercise: For `Cc1cc(C)c(C=C2Oc3cc4c(c(O)c3C2=O)CCC(C)(C)O4)c(C)c1` , what is its reported AF percent inhibition?
Key: 28

Exercise: So what's the measured AF percent inhibition for this one? `C=CCc1c(O)cc2c(c1O)C(=O)C(=Cc1ccc(C)cc1)O2`
Key: 47

Exercise: Item `CCc1ccc(C=C2Oc3cc4c(c(O)c3C2=O)CCC(C)(C)O4)cc1` has what recorded AF percent inhibition?
Key: 68

Exercise: I'd like to know its AF percent inhibition. The molecule in question is `CCOc1ccc(C=C2Oc3cc4c(c(O)c3C2=O)CCC(C)(C)O4)cc1OC`
Key: 67

Exercise: May I ask what AF percent inhibition has been recorded for `C=CCc1c(O)cc2c(c1O)C(=O)C(=Cc1ccccc1C)O2` ?
Key: 11

Exercise: AF percent inhibition for `C=CCc1c(O)cc2c(c1O)C(=O)C(=Cc1c(C)cc(C)cc1C)O2` ?
Key: 7

Exercise: What AF percent inhibition value was documented for this molecule, `C=CCc1c(O)cc2c(c1O)C(=O)C(=Cc1ccc(Oc3ccccc3)cc1)O2` ?
Key: 68

Exercise: # get_value(readout='AF percent inhibition', item= `CC1(C)CCc2c(cc3c(c2O)C(=O)C(=Cc2ccc(Oc4ccccc4)cc2)O3)O1` )
Key: 76

Exercise: What value of AF percent inhibition has been recorded for this entry: `CC1(C)CCc2c(cc3c(c2O)C(=O)C(=Cc2ccc(O)c(O)c2O)O3)O1`
Key: 69

Exercise: Entry under review: `C=CCc1c(O)cc2c(c1O)C(=O)C(=Cc1ccccc1OC)O2` . Reported AF percent inhibition?
Key: 62

Exercise: Field request: AF percent inhibition | item: `CC1(C)CCc2c(cc3c(c2O)C(=O)C(=Cc2ccc(O)c(O)c2)O3)O1`
Key: 0

Exercise: Which measured AF percent inhibition value corresponds to `C=CCc1c(O)cc2c(c1O)C(=O)C(=Cc1c(C)cccc1C)O2` ?
Key: 49

Exercise: Any idea what its AF percent inhibition is? The molecule is `CC1(C)CCc2c(cc3c(c2O)C(=O)C(=Cc2cc(C(C)(C)C)c(O)c(C(C)(C)C)c2)O3)O1`
Key: 68

Exercise: Reported AF percent inhibition for `C=CCc1c(O)cc2c(c1O)C(=O)C(=Cc1ccc(OCC)c(OC)c1)O2` : what is it?
Key: 69

Exercise: Given the entry `C=CCOc1ccccc1C=C1Oc2cc(O)c(CC=C)c(O)c2C1=O` , report its measured AF percent inhibition.
Key: 96

Exercise: May I ask what AF percent inhibition has been recorded for `CC1(C)CCc2c(cc3c(c2O)C(=O)C(=Cc2ccc(F)cc2F)O3)O1` ?
Key: 94

Exercise: AF percent inhibition lookup needed for `COc1ccccc1C=C1Oc2cc3c(c(O)c2C1=O)CCC(C)(C)O3` , thanks.
Key: 70

Exercise: Name the reported AF percent inhibition value associated with the molecule `C=CCc1c(O)cc2c(c1O)C(=O)C(=Cc1ccc(O)c(O)c1O)O2`
Key: 35

----------
Molecular target: chitin synthase III (CS III) (Candida albicans, UniProt P30573)
Construct: endogenous in cells
Sequence (P30573 whole entry): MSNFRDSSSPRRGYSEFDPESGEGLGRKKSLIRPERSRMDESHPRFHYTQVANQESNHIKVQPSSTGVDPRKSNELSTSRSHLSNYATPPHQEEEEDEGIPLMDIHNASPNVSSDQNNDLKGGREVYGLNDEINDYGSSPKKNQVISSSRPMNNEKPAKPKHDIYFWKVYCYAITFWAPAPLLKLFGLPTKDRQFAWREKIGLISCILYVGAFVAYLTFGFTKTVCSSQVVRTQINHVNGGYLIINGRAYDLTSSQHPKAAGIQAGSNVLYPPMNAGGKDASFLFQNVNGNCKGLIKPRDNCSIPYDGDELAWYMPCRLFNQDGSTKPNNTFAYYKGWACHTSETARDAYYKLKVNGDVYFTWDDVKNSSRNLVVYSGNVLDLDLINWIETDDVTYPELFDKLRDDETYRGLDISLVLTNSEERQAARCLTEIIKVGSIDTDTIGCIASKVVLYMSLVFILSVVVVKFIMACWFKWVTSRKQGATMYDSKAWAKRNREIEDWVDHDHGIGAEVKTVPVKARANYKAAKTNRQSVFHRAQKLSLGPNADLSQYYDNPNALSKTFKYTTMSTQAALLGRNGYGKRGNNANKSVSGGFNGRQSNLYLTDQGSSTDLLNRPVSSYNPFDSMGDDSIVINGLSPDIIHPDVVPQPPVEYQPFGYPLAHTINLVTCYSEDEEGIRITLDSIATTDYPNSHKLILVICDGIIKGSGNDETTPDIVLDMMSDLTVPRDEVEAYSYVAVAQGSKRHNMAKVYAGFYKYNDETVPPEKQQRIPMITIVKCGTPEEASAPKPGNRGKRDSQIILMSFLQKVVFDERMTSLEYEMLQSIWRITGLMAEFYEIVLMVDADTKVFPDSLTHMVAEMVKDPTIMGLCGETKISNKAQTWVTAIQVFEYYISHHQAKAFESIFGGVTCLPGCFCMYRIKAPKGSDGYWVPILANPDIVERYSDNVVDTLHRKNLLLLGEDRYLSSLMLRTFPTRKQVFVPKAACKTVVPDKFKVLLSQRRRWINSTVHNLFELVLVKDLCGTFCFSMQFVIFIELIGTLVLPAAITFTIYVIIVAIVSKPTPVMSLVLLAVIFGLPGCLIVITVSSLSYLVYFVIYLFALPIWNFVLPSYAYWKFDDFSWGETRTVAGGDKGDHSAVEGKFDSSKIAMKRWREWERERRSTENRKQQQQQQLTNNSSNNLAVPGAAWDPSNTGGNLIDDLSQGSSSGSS
Test: Inhibition of chitin synthase, CS III only
quantity.measured: IC50 (µM)
Only the number, expressed in µM, is required.

Exercise: Enter reported IC50 observed with chitin synthase III (CS III) (Candida albicans, UniProt P30573) for `CC(C)=CCc1c(O)cc2c(c1O)C(=O)C(=Cc1ccc(O)c(O)c1)O2`
Key: 107

----------
Tested on: A. fumigatus
Assay: Antifungal screen of matrix-synthesis aurones in 96-well plates, A. fumigatus
Assay type: cell-based, Aspergillus fumigatus
Conditions: @12.5 μg/ml
Hi, to clarify the labels: yes (1) covers AF percent inhibition from 40% upward, no (0) covers anything below 40%.

Exercise: Does AF percent inhibition meet or surpass 40% for `C=CCOc1ccccc1C=C1Oc2cc(O)cc(O)c2C1=O` ?
Key: yes (1)

Exercise: Please tell me: is the compound `O=C1C(=Cc2ccc(O)c(O)c2O)Oc2cc(O)cc(O)c21` at or over 40% in terms of AF percent inhibition?
Key: yes (1)

Exercise: Form field: AF percent inhibition at least 40%? Entry: `CC(C)=CCc1c(O)cc2c(c1O)C(=O)C(=Cc1cc(C(C)(C)C)c(O)c(C(C)(C)C)c1)O2`
Key: yes (1)

Exercise: Is the recorded value of AF percent inhibition equal to or greater than 40% for this compound? `CC(C)(C)c1cc(C=C2Oc3cc(O)cc(O)c3C2=O)cc(C(C)(C)C)c1O`
Key: no (0)

Exercise: Could you verify whether the entry `O=C1C(=Cc2ccc(O)c(O)c2)Oc2cc(O)cc(O)c21` shows AF percent inhibition of no less than 40%?
Key: no (0)

Exercise: Is reported AF percent inhibition greater than or equal to 40% here: CC(C)=CCc1c(O)cc2c(c1O)C(=O)C(=Cc1ccc(O)c(O)c1)O2 [drawing 36+drawing 32]
Key: no (0)
